- experimental-target: Androgen Receptor (AR) protein (Homo sapiens, UniProt P10275, T878A)
- Construct: endogenous in cells; host or cells: LNCaP
- Sequence (P10275 whole entry T878A): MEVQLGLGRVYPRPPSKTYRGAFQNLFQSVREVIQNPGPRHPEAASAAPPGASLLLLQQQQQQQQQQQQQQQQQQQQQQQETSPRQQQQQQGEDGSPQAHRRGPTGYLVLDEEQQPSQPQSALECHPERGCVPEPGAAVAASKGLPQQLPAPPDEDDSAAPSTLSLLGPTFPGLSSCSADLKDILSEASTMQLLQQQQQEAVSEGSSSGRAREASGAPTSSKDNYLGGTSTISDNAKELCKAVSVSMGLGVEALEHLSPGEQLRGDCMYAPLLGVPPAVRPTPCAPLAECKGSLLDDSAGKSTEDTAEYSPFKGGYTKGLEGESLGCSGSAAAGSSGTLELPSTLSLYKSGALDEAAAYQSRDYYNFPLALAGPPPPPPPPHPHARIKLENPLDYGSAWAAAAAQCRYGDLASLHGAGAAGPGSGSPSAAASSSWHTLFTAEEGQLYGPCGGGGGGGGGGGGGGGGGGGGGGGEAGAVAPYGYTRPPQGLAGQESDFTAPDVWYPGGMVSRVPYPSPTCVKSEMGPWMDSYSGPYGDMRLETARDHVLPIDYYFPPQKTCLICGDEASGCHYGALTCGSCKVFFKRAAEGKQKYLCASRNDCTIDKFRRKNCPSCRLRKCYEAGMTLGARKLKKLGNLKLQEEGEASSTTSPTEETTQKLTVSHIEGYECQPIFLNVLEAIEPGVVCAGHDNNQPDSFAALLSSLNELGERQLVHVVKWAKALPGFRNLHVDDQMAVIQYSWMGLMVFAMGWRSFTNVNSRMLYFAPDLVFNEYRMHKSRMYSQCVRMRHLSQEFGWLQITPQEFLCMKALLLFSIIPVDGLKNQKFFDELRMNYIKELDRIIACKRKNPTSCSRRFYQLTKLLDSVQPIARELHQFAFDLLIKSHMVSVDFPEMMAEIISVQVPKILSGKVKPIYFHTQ
- Sequence (Q96SW2 whole entry partner): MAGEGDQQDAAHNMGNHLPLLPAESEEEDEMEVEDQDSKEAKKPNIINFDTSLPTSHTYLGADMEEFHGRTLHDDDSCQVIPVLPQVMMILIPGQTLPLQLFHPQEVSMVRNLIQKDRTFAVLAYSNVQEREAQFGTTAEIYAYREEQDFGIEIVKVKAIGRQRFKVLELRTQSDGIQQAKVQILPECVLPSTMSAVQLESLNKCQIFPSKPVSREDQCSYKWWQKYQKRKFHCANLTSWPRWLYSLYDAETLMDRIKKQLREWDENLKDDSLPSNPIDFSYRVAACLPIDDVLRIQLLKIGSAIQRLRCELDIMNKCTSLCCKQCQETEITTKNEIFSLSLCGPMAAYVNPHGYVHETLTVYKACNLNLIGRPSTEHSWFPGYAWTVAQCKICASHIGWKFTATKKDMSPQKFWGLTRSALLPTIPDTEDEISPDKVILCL
- assay-details: Androgen Receptor (AR) protein degradation assay in LNCaP cells, western blotting
- Assay type: cell-based
- experimental-setup: 20 h, 0.01 μM compound
- Experimental: Experimental Example 1: Androgen Receptor (AR) Protein Degradation Assay After treating LNCaP cells with the synthesized Example compound, the amount of AR protein present in the cells was measured. The amount of AR protein was measured using western blotting detection method. […] [Protein quantification] […] Then, absorbance was measured at a wavelength of 562 nm. The unknown protein concentration was measured using a BSA standard curve (0, 0.125, 0.25, 0.5, 1, 2 mg/ml). […]
Exercise: state measured inhibition at 0.01 µM for each of the compounds provided.
One number for each entry, in %.

N#Cc1ccc(N2CCC(C(=O)Nc3ccc(N4CCN(CCOC5CCN(c6ccc7c(c6)C(=O)N(C6CCC(=O)NC6=O)C7=O)CC5)CC4)cn3)CC2)cc1C(F)(F)F (centres unmarked) [Example 117]; 35

For each listed entry, give its inhibition at 0.01 µM.
1. N#Cc1ccc(N2CCC(C(=O)Nc3ccc(N4CCC(CN5CC6(CCN(c7ccc8nnn(C9CCC(=O)NC9=O)c(=O)c8c7)CC6)C5)CC4)cn3)CC2)cc1C(F)(F)F (centres unmarked) [Example 53]
2. N#Cc1ccc(N2CCC(C(=O)Nc3ccc(N4CCC(CN5CCN(C6CN(c7ccc8c(n7)CN(C7CCC(=O)NC7=O)C8=O)C6)CC5)CC4)cn3)CC2)cc1C(F)(F)F (centres unmarked) [Example 33]

Result ::
[27, 54]

Count: 2. Required value per item: inhibition at 0.01 µM.
1. N#Cc1ccc(N2CCC(C(=O)Nc3ccc(CC4CCN(CC5CCN(c6cc7c(cc6F)C(=O)N(C6CCC(=O)NC6=O)C7=O)CC5)CC4)cn3)CC2)cc1C(F)(F)F (centres unmarked) [Example 182]
2. N#Cc1ccc(N2CCC(C(=O)Nc3ccc(N4CC(CN5CCC(Oc6ccc7c(c6)C(=O)N(C6CCC(=O)NC6=O)C7=O)CC5)C4)cn3)CC2)cc1C(F)(F)F (centres unmarked) [Example 148]

Result ::
1: 72; 2: 27

---

Give measured inhibition at 1 µM for each item. Keep answers brief.
- experimental-target: Androgen Receptor (AR) protein (Homo sapiens, UniProt P10275, T878A)
- Construct: endogenous in cells; host or cells: LNCaP
- assay-details: Androgen Receptor (AR) protein degradation assay in LNCaP cells, western blotting
- Type: cell-based
- experimental-setup: 20 h, 1 μM compound
Answers are plain numbers, in %.

Each compound below has a reported value. Please supply its inhibition at 1 µM.
1. N#Cc1ncc(N2CCC(C(=O)Nc3ccc(N4CCC(CN5CC6(CCN(c7ccc8c(c7)C(=O)N(C7CCC(=O)NC7=O)C8=O)CC6)C5)CC4)cn3)CC2)cc1C(F)(F)F (centres unmarked) [Example 57]
2. N#Cc1ncc(N2CCC(C(=O)Nc3ccc(N4CCC(CN5CCN(C6CCN(c7ccc8c(c7)CN(C7CCC(=O)NC7=O)C8=O)CC6)CC5)CC4)cn3)CC2)cc1C(F)(F)F (centres unmarked) [Example 142]
3. N#Cc1ccc(N2CCC(F)(C(=O)Nc3ccc(N4CCC(CN5CCN(CC6CCN(c7ccc8c(c7)CN(C7CCC(=O)NC7=O)C8=O)CC6)CC5)CC4)cn3)CC2)cc1C(F)(F)F (centres unmarked) [Example 144]
4. N#Cc1ccc(N2CCC(C(=O)Nc3ccc(OCCN4CCN(CC(=O)Nc5cccc(NC6CCC(=O)NC6=O)c5)CC4)cn3)CC2)cc1C(F)(F)F (centres unmarked) [Example 176]
5. N#Cc1ccc(N2CCC(C(=O)Nc3ccc(N4CCC5(CC4)CN(CC4CCN(c6ccc7c(c6)C(=O)N(C6CCC(=O)NC6=O)C7=O)CC4)C5)cn3)CC2)cc1C(F)(F)F (centres unmarked) [Example 127]

Result ::
[96, 83, 95, 16, 66]

---

For each entry below, report its inhibition at 1 µM value.
- experimental-target: Androgen Receptor (AR) protein (Homo sapiens, UniProt P10275, T878A)
- Construct: endogenous in cells; host or cells: LNCaP
- assay-details: Androgen Receptor (AR) protein degradation assay in LNCaP cells, western blotting
- Format: cell-based
- experimental-setup: 20 h, 1 μM compound
One number for each entry, in %.

Known results for molecules:
N#Cc1ccc(N2CCC(F)(C(=O)Nc3ccc(N4CCC(CCN5CCN(c6ccc7c(c6)C(=O)N(C6CCC(=O)NC6=O)C7=O)CC5)CC4)cn3)CC2)cc1C(F)(F)F (stereo not drawn); 96
N#Cc1ccc(N2CCC(C(=O)Nc3ccc(N4CCC(CN5CCN(C[C@H]6CCN(c7ccc8c(n7)CN(C7CCC(=O)NC7=O)C8=O)C6)CC5)CC4)cn3)CC2)cc1C(F)(F)F (stereo partly drawn); 95

Read the next record carefully.
Consider N#Cc1ccc(N2CCC(CC(=O)Nc3ccc(N4CCC(CN5CC6(CCN(c7ccc8c(c7)C(=O)N(C7CCC(=O)NC7=O)C8=O)CC6)C5)CC4)cn3)C2)cc1C(F)(F)F (stereo not drawn) . Its measured inhibition at 1 µM is 95

---

- experimental-target: Androgen Receptor (AR) protein (Homo sapiens, UniProt P10275, T878A)
- Construct: endogenous in cells; host or cells: LNCaP
- assay-details: Androgen Receptor (AR) protein degradation assay in LNCaP cells, western blotting
- Type: cell-based
- experimental-setup: 20 h, 0.1 μM compound
The threshold is inclusive: inhibition at 0.1 µM of exactly 90% counts as class 1; values below receive class 0.

Use the examples below as a reference point.
N#Cc1ccc(N2CCC(C(=O)Nc3ccc(N4CCC(CN5CCN(C[C@H]6CCN(c7ccc8c(n7)CN(C7CCC(=O)NC7=O)C8=O)C6)CC5)CC4)cn3)CC2)cc1C(F)(F)F (stereo partly drawn); class 1
CC1(COc2ccc(NC(=O)C3CCN(c4ccc(C#N)c(C(F)(F)F)c4)CC3)nc2)CN(CC2CCN(c3ccc4c(c3)C(=O)N(C3CCC(=O)NC3=O)C4=O)CC2)C1 (stereo not drawn); class 1
N#Cc1ccc(N2CCC(C(=O)Nc3ccc(N4CCC(CCN5CC6(CCN(c7ccc8c(c7)CN(C7CCC(=O)NC7=O)C8=O)CC6)C5)CC4)cn3)CC2)cc1C(F)(F)F (stereo not drawn); class 1
C[C@H]1CN(CC2CCN(c3ccc4c(n3)CN(C3CCC(=O)NC3=O)C4=O)CC2)CCN1CC1CCN(c2ccc(NC(=O)C3CCN(c4ccc(C#N)c(C(F)(F)F)c4)CC3)nc2)CC1 (stereo partly drawn); class 1
CC1(CN2CCN(CC3CCN(c4ccc5c(c4)C(=O)N(C4CCC(=O)NC4=O)C5=O)CC3)CC2)CN(c2ccc(NC(=O)C3CCN(c4ccc(C#N)c(C(F)(F)F)c4)CC3)nc2)C1 (stereo not drawn); class 1
N#Cc1ccc(N2CCC(C(=O)Nc3ccc(N4CCC(CN5CCN(CC6CCN(c7cc8c(cc7F)C(=O)N(C7CCC(=O)NC7=O)C8=O)CC6)CC5)CC4)cn3)CC2)cc1C(F)(F)F (stereo not drawn); class 1

Query :: inhibition at 0.1 µM >= 90% for N#Cc1ccc(N2CCC(C(=O)Nc3ccc(N4CCC(CN5CCN(CC6CN(c7ccc8c(c7)C(=O)N(C7CCC(=O)NC7=O)C8=O)C6)CC5)CC4)cn3)CC2)cc1C(F)(F)F (stereo not drawn) ?
Result :: class 1

Query :: In plain terms: is recorded inhibition at 0.1 µM at least 90% for N#Cc1ccc(N2CCC(C(=O)Nc3ccc(CCN4CCN(CC5CCN(c6ccc7c(c6)C(=O)N(C6CCC(=O)NC6=O)C7=O)CC5)CC4)cn3)CC2)cc1C(F)(F)F (stereo not drawn) ?
Result :: class 1

Query :: Answer whether inhibition at 0.1 µM of N#Cc1ccc(N2CCC(C(=O)Nc3ccc(N4CCC(CN5CCN(C6CN(c7ccc8c(c7)C(=O)N(C7CCC(=O)NC7=O)C8=O)C6)CC5)CC4)cn3)CC2)cc1C(F)(F)F (stereo not drawn) is greater than or equal to 90%.
Result :: class 1

---

- experimental-target: Androgen Receptor (AR) protein (Homo sapiens, UniProt P10275, T878A)
- Construct: endogenous in cells; host or cells: LNCaP
- assay-details: Androgen Receptor (AR) protein degradation assay in LNCaP cells, western blotting
- Assay type: cell-based
- experimental-setup: 20 h, 10 μM compound
Could you please report measured inhibition at 10 µM for the items listed next?
Param answer (str): number followed by unit.

Field: example entries. Status: answers known.
N#Cc1ccc(N2CCC(C(=O)Nc3ccc(C#CCN4CC5(CCN(c6ccc7c(c6)C(=O)N(C6CCC(=O)NC6=O)C7=O)CC5)C4)cn3)CC2)cc1C(F)(F)F (centres unmarked); 92%
COc1ccc(C(=O)N2CC3(CCN(CC4CCN(c5ccc(NC(=O)C6CCN(c7ccc(C#N)c(C(F)(F)F)c7)CC6)nc5)CC4)CC3)C2)cc1N1CCC(=O)NC1=O; 63%
N#Cc1ccc(N2CCC(C(=O)Nc3ccc(N4CCC(CN5CCC6(CC5)CCN(c5ccc7c(c5)C(=O)N(C5CCC(=O)NC5=O)C7=O)CC6)CC4)cn3)CC2)cc1C(F)(F)F (centres unmarked); 85%
N#Cc1ccc(N2CCC(C(=O)Nc3ccc(N4CCC(CN5CCN(CC6CCN(c7ccc8c(c7)C(=O)N(C7CCC(=O)NC7=O)C8=O)CC6)CC5)CC4)cn3)CC2)cc1Cl (centres unmarked); 94%

Field inhibition at 10 µM (entry N#Cc1ccc(N2CCC(C(=O)Nc3ccc(N4CC[C@H](CN5CC6(CCN(c7ccc8c(c7)C(=O)N(C7CCC(=O)NC7=O)C8=O)CC6)C5)C4)cn3)CC2)cc1C(F)(F)F (some centres unmarked) ) reads 87.5%
